The reported numbers originate from patent US20230295298A1.

# test_target: T1, human recombinant A33 antigen (human, UniProt Q99795 22-235)
# T1 construct: also called rH-GPA33; rHGPA33
# T1 sequence: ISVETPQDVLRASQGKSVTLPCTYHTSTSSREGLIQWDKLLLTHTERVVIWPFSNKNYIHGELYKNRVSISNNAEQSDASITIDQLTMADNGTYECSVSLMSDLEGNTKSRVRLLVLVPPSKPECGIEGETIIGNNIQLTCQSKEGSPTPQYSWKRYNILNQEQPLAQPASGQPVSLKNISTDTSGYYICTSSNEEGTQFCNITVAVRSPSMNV
# procedure_text: rH-GPA33 binding ELISA, 2ug/mL of 31.1, supernatant
Here the recorded OD Value of rH-GPA33 Binding ELISA is given for each entry.

| binder | data_value |
| --- | --- |
| humanized 31.1 antibody #5 (abb31.1-HC + cdr31.1-LC) (antibody, human IgG1, kappa, V domains shown, Full heavy and light chains; supernatant in the first screen, Protein A/G purified in the second round; also called Sample ID 5; abb-HC + cdr-LC) VH: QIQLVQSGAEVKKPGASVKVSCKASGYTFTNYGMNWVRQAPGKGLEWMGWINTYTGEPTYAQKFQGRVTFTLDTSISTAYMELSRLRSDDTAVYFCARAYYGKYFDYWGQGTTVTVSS VL: SIVMTQSPSSLSASVGDRVTITCKASQSVSNDVAWYQQKPGQSPKLLIYYASNRYTGVPDRFSGSGYGTDFTLTISSLQPEDFAVYFCQQDYSSPLTFGAGTKLEIKR | 0.85 OD |

The record that follows has no OD Value of rH-GPA33 Binding ELISA shown yet.
Given humanized 31.1 antibody #2 (cdr-HC + abb-LC) (antibody, human IgG1, kappa, V domains shown, Full heavy and light chains; transient Expi293 expression, tested as culture supernatant; also called Sample ID 2; cdr31.1-HC + abb31.1-LC) VH: QIQLVQSGAEVKKPGASVKVSCKASGYTFTNYGMNWVKQAPGKGLKWMGWINTYTGEPTYADDFKGRFAFTLDTSISTAYMELSRLRSDDTAVYFCARAYYGKYFDYWGQGTTVTVSS VL: SIQMTQSPSSLSASVGDRVTITCRASQSVSNDVAWYQQKPGQSPKLLIYYASNRYSGVPDRFSGSGYGTDFTLTISSLQPEDFAVYFCQQDYSSPLTFGAGTKLEIKR , state its recorded OD Value of rH-GPA33 Binding ELISA.
0.86 OD
